Let's look at some molecules and their measured cell viability.
Test system: NOMO1
Test: cell viability relative to DMSO control; higher = less cytotoxic
Conditions: RPMI 5 mM glucose + 10% dialyzed FBS; 48 h; 5.12 µM

| molecule | measurementUnit | cell viability |
| --- | --- | --- |
| Cc1n[nH]c2ccc(-c3cncc(OC[C@@H](N)Cc4ccccc4)c3)cc12 | % | 15.1 |
| Cc1cnc(Nc2cccc(CN3CCOCC3)c2)nc1Nc1cccc([S+](=O)([O-])NC(C)(C)C)c1 | % | 43.5 |
| COc1ccc(-n2c(C)c([N+](=O)[O-])c3ccc(O)cc32)cc1 | % | 97.5 |
| NC[C@H](O)c1ccc(O)c(O)c1 | % | 83.3 |
| COc1cc2cc(c1Cl)N(C)C(=O)C[C@H](OC(=O)C(C)C)[C@]1(C)O[C@@H]1[C@H](C)[C@@H]1C[C@@](O)(NC(=O)O1)[C@H](OC)/C=C/C=C(\C)C2 | % | 25.9 |
| COc1cccc(OC)c1-c1cc(C(=O)NC2(C(=O)O)C3CC4CC(C3)CC2C4)nn1-c1ccnc2cc(Cl)ccc12 (stereo not drawn) | % | 108 |
| CCc1nc(N)nc(N)c1-c1ccc(Cl)cc1 | % | 90.2 |
| CN(C)CCc1c[nH]c2ccc(Cn3cncn3)cc12 | % | 10.7 |

---

System: SEM cells
Experiment: cell viability relative to DMSO control; higher = less cytotoxic
Conditions: RPMI 5 mM glucose + 10% FBS; 48 h; 5.12 µM
readoutName: cell viability

| molecule | assayedSystem | reading |
| --- | --- | --- |
| CC(C)[C@H]1C(=O)N[C@H](CO)Cc2c[nH]c3cccc(c23)N1C | SEM cells | 47.9% |
| Cc1ccc(C(=O)Nc2ccc([S+](=O)([O-])O)c3cc([S+](=O)([O-])O)cc([S+](=O)([O-])O)c23)cc1NC(=O)c1cccc(NC(=O)Nc2cccc(C(=O)Nc3cc(C(=O)Nc4ccc([S+](=O)([O-])O)c5cc([S+](=O)([O-])O)cc([S+](=O)([O-])O)c45)ccc3C)c2)c1 | SEM cells | 52.7% |
| Cc1nnc(C(C)C)n1[C@@H]1C[C@H]2CC[C@@H](C1)N2CC[C@H](NC(=O)C1CCC(F)(F)CC1)c1ccccc1 | SEM cells | 86.1% |
| Nc1ncnc2nc(-c3ccc(N4CCOCC4)nc3)cc(-c3cccc(Br)c3)c12 | SEM cells | 114% |
| CC(C)(C)NCC(O)c1ccc(O)c(CO)c1 (stereo not drawn) | SEM cells | 107% |
| C[C@]12CC[C@H]3[C@@H](CC[C@@]45O[C@@H]4C(O)=C(C#N)C[C@]35C)[C@@H]1CC[C@@H]2O | SEM cells | 56.9% |
| OC[C@H]1OC(O)C[C@@H](O)[C@@H]1O (stereo partly drawn) | SEM cells | 109% |
| CCc1nc(N)nc(N)c1-c1ccc(Cl)cc1 | SEM cells | 36% |

---

System: SEM cells
Assay: cell viability relative to DMSO control; higher = less cytotoxic
Details: HPLM + 10% dialyzed FBS; 48 h; 5.12 µM
Please note: cell viability exactly at 80% is 0.0. Only values below 80% get 1.0.

| compound | classAssignment |
| --- | --- |
| Cc1ccc(C(=O)Nc2ccc([S+](=O)([O-])O)c3cc([S+](=O)([O-])O)cc([S+](=O)([O-])O)c23)cc1NC(=O)c1cccc(NC(=O)Nc2cccc(C(=O)Nc3cc(C(=O)Nc4ccc([S+](=O)([O-])O)c5cc([S+](=O)([O-])O)cc([S+](=O)([O-])O)c45)ccc3C)c2)c1 | 1.0 |
| O=C(CCCN1CCC(O)(c2ccc(Cl)cc2)CC1)c1ccc(F)cc1 | 0.0 |
| N#Cc1c(N(CC(=O)[O-])CC(=O)[O-])sc(C(=O)[O-])c1CC(=O)[O-].O.O.O.O.O.O.O.[Sr+2].[Sr+2] | 0.0 |
| CCC(=O)NC[C@H](Cc1ccc(OCCc2nc(-c3ccccc3)oc2C)cc1)N/C(C)=C\C(=O)c1ccc(C(F)(F)F)cc1 | 0.0 |
| OC1=C(Cl)C=C(N\C2=C(\C(=O)NC2=O)C3=C(C=CC=C3)[N+]([O-])=O)C=C1 | 0.0 |
| CC(c1cc2ccccc2s1)N(O)C(N)=O (configuration not stated) | 0.0 |
| C#CCC(Cc1cnc2nc(N)nc(N)c2n1)c1ccc(C(=O)N[C@@H](CCC(=O)O)C(=O)O)cc1 (some centres not stated) | 1.0 |
| NCCOc1cc(C(=O)Nc2cc(OCCN)c3ccccc3n2)nc(C(=O)Nc2cc(OCCN)c3ccccc3n2)c1 | 1.0 |
| CN(CC(=O)N(Cc1ccc(C2CCCCC2)cc1)c1ccc(C(=O)O)c(O)c1)[S+](=O)([O-])c1c(F)c(F)c(F)c(F)c1F | 0.0 |
| CCc1nc(N)nc(N)c1-c1ccc(Cl)cc1 | 1.0 |
| O=c1oc2cc(O)ccc2s1 | 0.0 |
| Cc1noc(N[S+](=O)([O-])c2ccc(N)cc2)c1C | 0.0 |
| CN(C)CCc1c[nH]c2ccc(Cn3cncn3)cc12 | 1.0 |
| Cc1nnc(C(C)C)n1[C@@H]1C[C@H]2CC[C@@H](C1)N2CC[C@H](NC(=O)C1CCC(F)(F)CC1)c1ccccc1 | 0.0 |
| CC1(C)CCC(C)(C)c2cc(NC(=O)c3ccc(C(=O)O)cc3)ccc21 | 0.0 |
| O=C1\C=C(OC2=C(C=CC=C12)C3=CC=CC4=C3SC5=C4C=CC=C5)\N6CCOCC6 | 0.0 |

---

Let's look at some compounds and their measured cell viability.
Tested on: NOMO1
Test: cell viability relative to DMSO control; higher = less cytotoxic
Conditions: HPLM + 10% dialyzed FBS; 48 h; 1.71 µM
readoutName: cell viability

| compound | assayedSystem | reading |
| --- | --- | --- |
| C#CCC(Cc1cnc2nc(N)nc(N)c2n1)c1ccc(C(=O)N[C@@H](CCC(=O)O)C(=O)O)cc1 (stereo partly drawn) | NOMO1 | 49.4% |
| OC1=C(Cl)C=C(N\C2=C(\C(=O)NC2=O)C3=C(C=CC=C3)[N+]([O-])=O)C=C1 | NOMO1 | 70% |
| CN(C)CCc1c[nH]c2ccc(Cn3cncn3)cc12 | NOMO1 | 18.3% |
| Clc1ccc(C(c2ccccc2Cl)C(Cl)Cl)cc1 (stereo not drawn) | NOMO1 | 122% |
| COc1cc2cc(c1Cl)N(C)C(=O)C[C@H](OC(=O)C(C)C)[C@]1(C)O[C@@H]1[C@H](C)[C@@H]1C[C@@](O)(NC(=O)O1)[C@H](OC)/C=C/C=C(\C)C2 | NOMO1 | 41.8% |
| CC(C)[C@]12O[C@H]1[C@@H]3O[C@@]34[C@@]5(C)CC\C6=C(COC6=O)/[C@@H]5C[C@@H]7O[C@]47[C@@H]2O | NOMO1 | 6.99% |
| O=C(CCCN1CCC(O)(c2ccc(Cl)cc2)CC1)c1ccc(F)cc1 | NOMO1 | 129% |
| Cc1nc(-c2ccc(-c3ccc(C(=O)N4CCc5cc6c(cc54)C4(CCN(C)CC4)CO6)cc3)c(C)c2)no1 | NOMO1 | 129% |
| CCC(=O)O[C@@]1(CC[C@H]2[C@@H]3CCC/4=C/C(=O)CC[C@]4(C)[C@H]3CC[C@]12C)C(=O)CO | NOMO1 | 140% |
| NCCOc1cc(C(=O)Nc2cc(OCCN)c3ccccc3n2)nc(C(=O)Nc2cc(OCCN)c3ccccc3n2)c1 | NOMO1 | 40.3% |
| O=c1oc2cc(O)ccc2s1 | NOMO1 | 95.8% |
| O=C(O)c1cccnc1 | NOMO1 | 85.2% |
| C[C@@H](Cc1cc2c(c(C(N)=O)c1)N(CCCO)CC2)NCCOc1ccccc1OCC(F)(F)F | NOMO1 | 135% |
| C[C@]12CC[C@H]3[C@@H](CC[C@@]45O[C@@H]4C(O)=C(C#N)C[C@]35C)[C@@H]1CC[C@@H]2O | NOMO1 | 116% |
| N#Cc1cc(NC(=O)Nc2nnc(-c3ccncc3)s2)ccc1-c1cn[nH]c1 | NOMO1 | 130% |
| Cc1nc2ccc(CN(C)c3ccc(C(=O)N[C@@H](CCC(=O)O)C(=O)O)s3)cc2c(=O)[nH]1 | NOMO1 | 44.8% |
| COC(=O)[C@H](Cc1ccccc1)NC(=O)[C@@H](N)CC(=O)O | NOMO1 | 112% |
| CCN(CC)CCCC(C)Nc1ccnc2cc(Cl)ccc12 (stereo not drawn) | NOMO1 | 69.7% |

---

Test system: P12-Ichikawa
Assay: cell viability relative to DMSO control; higher = less cytotoxic
Conditions: RPMI 5 mM glucose + 10% FBS; 48 h; 0.00702 µM
Let's look at some molecules and their measured cell viability.
readoutName: cell viability

| molecule | readoutName | reading |
| --- | --- | --- |
| C=C1CCC2[C@](C)(CO)C(O)CC[C@]2(C)C1C/C=C1/C(=O)OCC1O (stereo not given in full) | cell viability | 118% |
| Cc1noc(N[S+](=O)([O-])c2ccc(N)cc2)c1C | cell viability | 97.6% |
| C[C@]12CC[C@H]3[C@@H](CC[C@@]45O[C@@H]4C(O)=C(C#N)C[C@]35C)[C@@H]1CC[C@@H]2O | cell viability | 108% |
| COC(=O)[C@H](Cc1ccccc1)NC(=O)[C@@H](N)CC(=O)O | cell viability | 113% |
| CCOc1cc(C(=O)Nc2ccc(Cl)c(-c3nc4ccccc4[nH]3)c2)cc(OCC)c1OCC | cell viability | 86.7% |
| CNC(=O)c1nn(C)c2c1C(C)(C)Cc1cnc(Nc3ccc(N4CCN(C)CC4)cc3)nc1-2 | cell viability | 119% |
| CC(C)[C@H]1C(=O)N[C@H](CO)Cc2c[nH]c3cccc(c23)N1C | cell viability | 104% |
| O=C(O)c1cccnc1 | cell viability | 126% |
| CCn1c(C(=O)N(C2CC2)C2CC2)cc2c3c(ncn3C)c(Nc3cc(C)n(C)n3)nc21 | cell viability | 108% |
| CN(C)c1ccc(-c2nc3c(N4CCN(CC(=O)Nc5nccs5)CC4)c(Cl)cnc3[nH]2)cc1 | cell viability | 116% |
| CC1(C)CCC(C)(C)c2cc(NC(=O)c3ccc(C(=O)O)cc3)ccc21 | cell viability | 93.9% |
| CCCCCN(C)CCC(O)(P(=O)([O-])O)P(=O)(O)O | cell viability | 91.3% |
| Cc1ccc(C(=O)Nc2ccc([S+](=O)([O-])O)c3cc([S+](=O)([O-])O)cc([S+](=O)([O-])O)c23)cc1NC(=O)c1cccc(NC(=O)Nc2cccc(C(=O)Nc3cc(C(=O)Nc4ccc([S+](=O)([O-])O)c5cc([S+](=O)([O-])O)cc([S+](=O)([O-])O)c45)ccc3C)c2)c1 | cell viability | 99.6% |
| O=c1oc2cc(O)ccc2s1 | cell viability | 95.8% |
| NC(=O)c1nnn(Cc2cc(Cl)c(C(=O)c3ccc(Cl)cc3)c(Cl)c2)c1N | cell viability | 122% |
| O=C(CCCN1CCC(O)(c2ccc(Cl)cc2)CC1)c1ccc(F)cc1 | cell viability | 111% |
| OC1=C(Cl)C=C(N\C2=C(\C(=O)NC2=O)C3=C(C=CC=C3)[N+]([O-])=O)C=C1 | cell viability | 105% |
| CC(C)[C@H](O)C(=O)N[C@@H](C)C(=O)N[C@@H]1C(=O)N(C)CCc2ccccc21 | cell viability | 122% |
| CN1CCC(CNc2ccc3ncc(-c4cccc(OC(F)(F)F)c4)n3n2)CC1 | cell viability | 89.4% |
| CN1CCN(CC1)C2=CC3=C([NH]C(=N3)C/4=C(\N)C5=C(F)C=CC=C5NC4=O)C=C2 | cell viability | 111% |
| CCc1nc(N)nc(N)c1-c1ccc(Cl)cc1 | cell viability | 88.6% |
| C/C1=C/C(=C(/CNC(=O)C2=CC(=CC3=C2C=N[N]3C4CCCC4)C5=CC=C(CN6CCOCC6)C=C5)C(=O)N1)C | cell viability | 120% |
| CC(C)C[C@H](CC(=O)O)C(=O)N[C@@H](Cc1c[nH]c2ccccc12)C(=O)N[C@@H](C)c1ccccc1 | cell viability | 111% |
| Nc1cc(N2CCCCC2)nc(N)[n+]1[O-] | cell viability | 121% |
| CC[C@H](C)C(=O)O[C@H]1C[C@@H](C)\C=C2\C=C/[C@H](C)[C@H](CC[C@@H]3C[C@@H](O)CC(=O)O3)[C@@H]12 | cell viability | 87.6% |
| Cc1cnc(Nc2cccc(CN3CCOCC3)c2)nc1Nc1cccc([S+](=O)([O-])NC(C)(C)C)c1 | cell viability | 85.9% |
| COC(=O)CCC1=C(C)C2=CC3=NC(=CC4=C(C)C(=C([NH]4)C=C\5N=C(C=C1[NH]2)\C(=C5C)CCC(O)=O)C=C)\C6=C\C=C(/[C@@H](C(=O)OC)[C@@]36C)C(=O)OC | cell viability | 104% |
| C[C@@H](Cc1cc2c(c(C(N)=O)c1)N(CCCO)CC2)NCCOc1ccccc1OCC(F)(F)F | cell viability | 106% |
| OC[C@H]1OC(O)C[C@@H](O)[C@@H]1O (stereo not given in full) | cell viability | 124% |
| Cc1nc2ccc(CN(C)c3ccc(C(=O)N[C@@H](CCC(=O)O)C(=O)O)s3)cc2c(=O)[nH]1 | cell viability | 126% |
